Assay: Plasma exposure after the last dose in DIO mini-pigs
Assay type: in vivo, Göttingen mini-pigs
Conditions: Göttingen, minipig, plasma, sc; CCK derivative low dose group; read-out: AUCexposure (0-24 h) after last dose
Procedure: The CCK derivative was dissolved in the following buffer: 8 mM phosphate, 184 mM propylene glycol, 58 mM phenol, pH 7.4 concentrations ranging from 2000-10000 nmol/mL corresponding to dose volumes ranging from 0.00075-0.001 mL/kg. […] The resulting plasma was pipetted into Micronic tubes on dry ice, and kept at −20° C. until analysed for plasma exposure of liraglutide and the CCK derivative. Plasma content of the CCK derivative was measured using LC-MS method II, as described in Example 93. […]
Starred links: 1 amine or outer side, 2 acyl side, 3 side chain; linkers in the order of their positions; H or OH if unused. Non-standard residues stand in square brackets, D forms with d. Residues, ends and D or L forms follow the SMILES beside them. *: point of attachment. Phe(4-CH2SO3H) = N[C@@H](Cc1ccc(CS(=O)(=O)O)cc1)C(=O)O; C18 diacid = O=C(O)CCCCCCCCCCCCCCCCC(=O)*; γGlu = O=C(O)[C@H](CCC(=O)[*:2])N[*:1]; NMeF = CN[C@@H](Cc1ccccc1)C(=O)O; dNMeD = CN[C@H](CC(=O)O)C(=O)O; Nle = CCCC[C@H](N)C(=O)O; AEEA = NCCOCCOCC(=O)O

Compound	AUC(0-t)
CCCC[C@H](NC(=O)[C@H](Cc1ccc(CS(=O)(=O)O)cc1)NC(=O)[C@H](CC(=O)O)NC(=O)COCCOCCNC(=O)COCCOCCNC(=O)CC[C@H](NC(=O)CCCCCCCCCCCCCCCCC(=O)O)C(=O)O)C(=O)NCC(=O)N[C@@H](Cc1c[nH]c2ccccc12)C(=O)N[C@@H](CCCC)C(=O)N(C)[C@H](CC(=O)O)C(=O)N(C)[C@@H](Cc1ccccc1)C(N)=O [Example 3] ({C18 diacid-γGlu-AEEA-AEEA}-D[Phe(4-CH2SO3H)][Nle]GW[Nle][dNMeD][NMeF]-NH2)	4.2 µM·h

###

pIC50 reference
Target: human cholecystokinin-2 receptor (CCK-2R) (Homo sapiens, UniProt P32239)
Construct: host or cells: 1321-N1 cells (plasma membranes prepared by Evotec AG Hamburg)
Sequence (P32239 whole entry): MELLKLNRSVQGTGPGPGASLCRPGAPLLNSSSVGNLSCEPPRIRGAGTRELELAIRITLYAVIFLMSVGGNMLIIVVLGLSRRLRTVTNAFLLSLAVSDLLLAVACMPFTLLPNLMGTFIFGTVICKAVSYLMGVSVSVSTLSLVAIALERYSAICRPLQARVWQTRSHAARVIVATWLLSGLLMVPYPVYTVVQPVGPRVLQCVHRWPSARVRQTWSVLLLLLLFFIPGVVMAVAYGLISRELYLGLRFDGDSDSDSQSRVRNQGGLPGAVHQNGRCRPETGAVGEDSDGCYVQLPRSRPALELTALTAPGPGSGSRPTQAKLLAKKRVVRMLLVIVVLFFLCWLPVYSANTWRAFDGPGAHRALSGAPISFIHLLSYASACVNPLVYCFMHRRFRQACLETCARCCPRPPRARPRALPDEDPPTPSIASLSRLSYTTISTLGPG
Experiment: In vitro receptor binding to CCK-2R, SPA displacement of [125I]-CCK-8s from plasma membranes
Details: displacement of [125I]-CCK-8s, plasma membranes of 1321-N1 cells expressing CCK-2R; highest dose tested 1×10^7 pM; read-out: IC50 (CCK-2R)
pIC50: −log10 of the molar value. Starred links: 1 amine or outer side, 2 acyl side, 3 side chain; linkers in the order of their positions; H or OH if unused. Non-standard residues stand in square brackets, D forms with d. Residues, ends and D or L forms follow the SMILES beside them. *: point of attachment. Phe(4-CH2SO3H) = N[C@@H](Cc1ccc(CS(=O)(=O)O)cc1)C(=O)O; sY = N[C@@H](Cc1ccc(OS(=O)(=O)O)cc1)C(=O)O; C18 diacid = O=C(O)CCCCCCCCCCCCCCCCC(=O)*; γGlu = O=C(O)[C@H](CCC(=O)[*:2])N[*:1]; βAsp = O=C(O)[C@H](CC(=O)[*:2])N[*:1]; NMeF = CN[C@@H](Cc1ccccc1)C(=O)O; dNMeD = CN[C@H](CC(=O)O)C(=O)O; Nle = CCCC[C@H](N)C(=O)O; AEEA = NCCOCCOCC(=O)O

Compound	pIC50
CCCC[C@H](NC(=O)[C@H](Cc1c[nH]c2ccccc12)NC(=O)CNC(=O)[C@@H](NC(=O)[C@H](Cc1ccc(OS(=O)(=O)O)cc1)NC(=O)[C@H](CC(=O)O)NC(=O)COCCOCCNC(=O)COCCOCCNC(=O)CC[C@H](NC(=O)CCCCCCCCCCCCCCCCC(=O)O)C(=O)O)[C@@H](C)CC)C(=O)N(C)[C@H](CC(=O)O)C(=O)N(C)[C@@H](Cc1ccccc1)C(N)=O [Example 47] ({C18 diacid-γGlu-AEEA-AEEA}-D[sY]IGW[Nle][dNMeD][NMeF]-NH2)	6.47
CCCC[C@H](NC(=O)[C@H](Cc1c[nH]c2ccccc12)NC(=O)CNC(=O)[C@H](C)NC(=O)[C@H](Cc1ccc(OS(=O)(=O)O)cc1)NC(=O)[C@@H](N)CC(=O)O)C(=O)N(C)[C@H](CC(=O)O)C(=O)N(C)[C@@H](Cc1ccccc1)C(N)=O [Example 80] (H-D[sY]AGW[Nle][dNMeD][NMeF]-NH2)	< 5.00
CCCC[C@H](NC(=O)[C@H](Cc1ccc(CS(=O)(=O)O)cc1)NC(=O)C[C@H](NC(=O)COCCOCCNC(=O)COCCOCCNC(=O)CC[C@H](NC(=O)CCCCCCCCCCCCCCCCC(=O)O)C(=O)O)C(=O)O)C(=O)NCC(=O)N[C@@H](Cc1c[nH]c2ccccc12)C(=O)N[C@@H](CCCC)C(=O)N(C)[C@H](CC(=O)O)C(=O)N(C)[C@@H](Cc1ccccc1)C(N)=O [Example 26] ({C18 diacid-γGlu-AEEA-AEEA-βAsp}-[Phe(4-CH2SO3H)][Nle]GW[Nle][dNMeD][NMeF]-NH2)	< 5.00
CCCC[C@H](NC(=O)[C@H](Cc1c[nH]c2ccccc12)NC(=O)CNC(=O)[C@H](CC(C)C)NC(=O)[C@H](Cc1ccc(OS(=O)(=O)O)cc1)NC(=O)[C@H](CCC(=O)O)NC(=O)COCCOCCNC(=O)COCCOCCNC(=O)CC[C@H](NC(=O)CCCCCCCCCCCCCCCCC(=O)O)C(=O)O)C(=O)N(C)[C@H](CC(=O)O)C(=O)N[C@@H](Cc1ccccc1)C(N)=O [Example 52] ({C18 diacid-γGlu-AEEA-AEEA}-E[sY]LGW[Nle][dNMeD]F-NH2)	6.32
CCCC[C@H](NC(=O)[C@H](Cc1c[nH]c2ccccc12)NC(=O)CNC(=O)[C@H](CC(C)C)NC(=O)[C@H](Cc1ccc(OS(=O)(=O)O)cc1)NC(=O)[C@H](N)CCC(=O)O)C(=O)N(C)[C@H](CC(=O)O)C(=O)N(C)[C@@H](Cc1ccccc1)C(N)=O [Example 87] (H-[dE][sY]LGW[Nle][dNMeD][NMeF]-NH2)	< 5.00
CCCC[C@H](NC(=O)[C@H](Cc1ccc(CS(=O)(=O)O)cc1)NC(=O)[C@@H](N)CC(=O)O)C(=O)NCC(=O)N[C@@H](Cc1c[nH]c2ccccc12)C(=O)N[C@@H](CCCC)C(=O)N(C)[C@H](CC(=O)O)C(=O)N(C)[C@@H](Cc1ccccc1)C(N)=O [Example 55] (H-D[Phe(4-CH2SO3H)][Nle]GW[Nle][dNMeD][NMeF]-NH2)	< 5.00
